- Tested on: MS2 coat protein
- test-name: apparent Kd, MS2 coat protein; higher = weaker binding; RNA-MaP array; FMN 200 µM where present
- experimental-context: designed as: OFF switch for flavin mononucleotide; no ligand
# binarize apparent Kd: threshold 40 nM inclusive, high side Satisfied, low side Not satisfied

{"sequence-record": "AUGCUUUGUGUAGGAUAUGCAUACGGUACGUAUGCAGAAGGACAUGAGGAUCACCCAUGUAUAUUAUUAUUACAUAUCAUACAU", "assigned-label": "Not satisfied"}

Continue with the next sequence.
Query :: Check this sequence for apparent Kd at or above 40 nM: `UACCGCUCUGAAGGAUAUCCACUGGGAUGCUGGAUGUAUGAGCGUACAUGAGGAUCACCCAUGUAGGAGAAGGUCAGGCAUUCC`
Result :: Not satisfied

###

- Tested on: MS2 coat protein
- test-name: apparent Kd, MS2 coat protein; higher = weaker binding; RNA-MaP array; FMN 200 µM where present
- experimental-context: designed as: ON switch for flavin mononucleotide; no ligand
# binarize apparent Kd: threshold 400 nM inclusive, high side 1, low side 0

The examples below pair each entry with its known result.
{"sequence-record": "CCCAAACUUGGGUUUAAUGGUUCAUAGGAUAUGCUUGUACAUGAGGAUCACCCAUGUACUAUUGUGCAGAAGGGUGCAUGGCAA", "assigned-label": 0}
{"sequence-record": "AAAAAACAUGAGGAUCACCCAUGUCCUCGGACAUGAGGAUAUGUACAGACUUCGGUCUGUACAGAAGGCAUGUCAA", "assigned-label": 1}

Query :: Check this sequence for apparent Kd at or above 400 nM: `CGUUCACAUGAGGAUCACCCAUGUCAGAUUUGGUCAGGAUAUGGUCGGCAUCCGCUAUUGCCAGAAGGGACUGUUG`
Result :: 0

Query :: Next up: `UGUUGUAUUACAGGAUAUCUAUGAUUUUUAUUAAGAGAAGGGUAUUCACAUGAGGAUCACCCAUGUAUAUACGAGGAAGUUGUG`
Result :: 0

Query :: Next up: `AUGCCUAAUGAGAAGGUGUAUAUAAAUUAUAUACAAGGAUAUCGGUCAAGCAUGAAAACAUGAGGAUCACCCAUGUUAAGGCAU`
Result :: 0

Query :: Next up: `CGCUACUGCCAGAAGGACAUGAGGAUCACCCAUGUAGGAUAUGGGUGUCGAGGACCAGUGUAGAGAAACUACGCUACAGUAGCG`
Result :: 1

###

- System: MS2 coat protein
- test-name: apparent Kd, MS2 coat protein; higher = weaker binding; RNA-MaP array; FMN 200 µM where present
- experimental-context: designed as: ON switch for flavin mononucleotide; no ligand
Listed here are sequences together with their documented apparent Kd.
Provide the reading as a plain figure in nM.

Query :: Please state recorded apparent Kd (tested on MS2 coat protein) of `UGUACUUAUUUUAAUUAUGAUUUACUAGAAGGUAGAUACAUGAGGAUCACCCAUGUUUAGAGUUCUAAGGAUAUAGAUUUUAUC`
Result :: 10.3

Query :: Next up: `GCGAUUUUGUAAGGAUAUACACCAGUUUUAAGUGUAGAAGGUACUUACAUGAGGAUCACCCAUGUAUAAAUGUAUAAUAGUCGC`
Result :: 6.92

Query :: Next up: `UGGUACAUGGGAGGAUAUCCUCAAGAGACAUGAGGAUCACCCAUGUAUUAUAUGCCUCUUGGCAUGGAGAAGGCCCAUGUACCU`
Result :: 56.2

Query :: Next up: `AUUACAUGAGGAUCACCCAUGUACAGCACGUUUCAAAACAGUGAGGAUAUACGAAAUGUAGGAACGUAGAAGGCACUGGGUGCA`
Result :: 98.3

Query :: Next up: `UCAUCUUGUCGAGGAUAUAUUAACAUGACAUGAGACACAUGAGGAUCACCCAUGUAUUUUUUUUUAUAGAAGGCGACUAUAUGU`
Result :: 32.6

Query :: Next up: `GGACUGGACUAGAAGGGUGAUGCGCUCGCAGACACAGGAUAUAGUCACAUGAGGAUCACCCAUGUCGGUCCAUGUAAAGAAACU`
Result :: 20.2

Query :: Next up: `UUAUCUCAUGAGAAGGACAUGAGGAUCACCCAUGUAGGAUAUCAUGGGUCAGAGGAAUUGAAUCUUCGGAUUCAAUUACUCUUC`
Result :: 72

Query :: Next up: `UGGUACAUGGGAGGAUAUGGGUUGAUAACAUGAGGAUCACCCAUGUUAAUGCCGAAAGGCAAGAACUAGAAGGCCCAUGUACCU`
Result :: 410

Query :: Next up: `GGAUUUGGUCCAAUUUCGGUGAGUAAGGAUAUGCAUGGCAUACAUGAGGAUCACCCAUGUUGUCGGCAGAAGGUGCCACAACGU`
Result :: 45.7

Query :: Next up: `AAUAAUUAGUAAGGAUAUACUAGUGGUUAGCUUGUAGAAGGUACAGUCUUAUGUAUAACAAAUUAACAUGAGGAUCACCCAUGU`
Result :: 10.6

Query :: Next up: `GGUGAAUGAACAUGAGGAUCACCCAUGUACAGGAAACUGAAUGAGGAUAUCCAUAGCAAAGCUAUGGAGAAGGCAUGGGUCACC`
Result :: 302
